B1: NF2 (merlin) isoform 7, human, full length (507 aa, lacks exons 2-3 = isoform-1 residues 39-121; exon-16 C-terminus), P35240-4 (parent)
chain: MAGAIASRMSFSSLKRKQPKTFTVRIVTMDAEMEFNCEVKKQILDEKIYCPPEASVLLASYAVQAKYGDYDPSVHKRGFLAQEELLPKRVINLYQMTPEMWEERITAWYAEHRGRARDEAEMEYLKIAQDLEMYGVNYFAIRNKKGTELLLGVDALGLHIYDPENRLTPKISFPWNEIRNISYSDKEFTIKPLDKKIDVFKFNSSKLRVNKLILQLCIGNHDLFMRRRKADSLEVQQMKAQAREEKARKQMERQRLAREKQMREEAERTRDELERRLLQMKEEATMANEALMRSEETADLLAEKAQITEEEAKLLAQKAAEAEQEMQRIKATAIRTEEEKRLMEQKVLEAEVLALKMAEESERRAKEADQLKQDLQEAREAERRAKQKLLEIATKPTYPPMNPIPAPLPPDIPSFNLIGDSLSFDFKDTDMKRLSMEIEKEKVEYMEKSKHLQEQLNELKTEIEALKLKERETALDILHNENSDRGGSSKHNTIKKPQAQGRRPICI

# Variants of: B1
# assaySummary: reverse yeast two-hybrid deep mutational scan (rY2H-seq): NF2 isoform 7 mutant library as bait mated with wild-type prey strains; selection on medium lacking adenine for non-interacting pairs; NextSeq paired-end sequencing; enrichment vs …
# reportedConditions: with EMILIN1 (elastin microfibril interfacer 1), Q9Y6C2; yeast diploids after mating (RBait_S3 x RPrey_S3), 30 °C, selection for reporter genes on NB agar; human tyrosine kinase ABL2 co-expressed as the active kinase …; HIGHER = WEAKER BINDING (the opposite of display enrichments): higher = stronger loss of interaction: reverse Y2H selects yeast in which bait and prey do NOT interact (growth without adenine), so a …; hits-only table; scale: rY2H score; numbering: uniprot, sequence starts at 1
Documented enrichment across a set of variants
Could you keep your reply to the number by itself?

Consider the following illustrative entries.
{"columns": ["mutant", "enrichment"],
 "data": [
  ["R263G", 1.44],
  ["E252K", 1.41],
  ["F173S", 1.69]
]}

Alright, here's another variant for you.
Sure, the documented enrichment for `A365E` is 4.87
